# Test system: S. aureus (ATCC 29213)
# Measurement Description: MIC determination, broth microdilution
# Type: cell-based, Staphylococcus aureus
# Stated Conditions: value in brackets; S. aureus ATCC 29213; MHB-II, 37 °C, 18–24 h, triplicate
# Protocol: The following bacteria were grown in cation-adjusted Muller-Hinton broth at 37 °C with shaking: A. baumannii (ATCC 19606), E. coli (ATCC 25922), K. pneumoniae (ATCC 13883), P. aeruginosa (ATCC 27853), and S. aureus (ATCC 29213). The MIC experiments were performed in triplicate, as described in Jensen et al.. […] When the overnight culture was prepared, the OD was measured using a spectrophotometer and when an OD value between 0.2 and 0.4 was obtained, the culture was diluted to OD = 0.002. […]
Non-standard residues stand in square brackets, D forms with d. Residues, ends and D or L forms follow the SMILES beside them. *: point of attachment. Octanoyl = CCCCCCCC(=O)*; Butyryl = CCCC(=O)*
Checkbox rule: MIC SA lower than 20 µM = met; MIC SA not lower than 20 µM = not met.

As a guide, the following entries are already answered.
[[record]]
molecule = "CC[C@@H](C)[C@@H](NC(=O)[C@@H](CCCCN)NC(=O)[C@@H](CCCCN)NC(=O)[C@@H](Cc1ccccc1)NC(=O)[C@@H](CC(C)C)NC(=O)[C@@H](CCCCN)NC(=O)[C@H](N)CCCCN)C(=O)N1CCCC[C@H](C(N)=O)NC(=O)[C@@H](Cc2ccc(O)cc2)NC(=O)[C@@H](CCCNC(=N)N)NC(=O)[C@@H](CC(C)C)NC(=O)C1"
study_target = "S. aureus (ATCC 29213)"
class_name = "not met"

[[record]]
molecule = "CCCCCCCCCC(=O)N[C@H](CCCCN)C(=O)N[C@H](CCCCN)C(=O)N[C@H](CC(C)C)C(=O)N[C@H](Cc1ccccc1)C(=O)N[C@H](CCCCN)C(=O)N[C@H](CCCCN)C(=O)N1CCCC[C@H](C(N)=O)NC(=O)[C@@H](Cc2ccc(O)cc2)NC(=O)[C@@H](CCCNC(=N)N)NC(=O)[C@@H](CC(C)C)NC(=O)[C@@H]([C@H](C)CC)NC(=O)C1"
study_target = "S. aureus (ATCC 29213)"
class_name = "met"

[[record]]
molecule = "CCCCCCCCCCCC(=O)N[C@H](CCCCN)C(=O)N[C@H](CCCCN)C(=O)N[C@H](CC(C)C)C(=O)N[C@H](Cc1ccccc1)C(=O)N[C@H](CCCCN)C(=O)N[C@H](CCCCN)C(=O)N1CCCC[C@H](C(N)=O)NC(=O)[C@@H](Cc2ccc(O)cc2)NC(=O)[C@@H](CCCNC(=N)N)NC(=O)[C@@H](CC(C)C)NC(=O)[C@@H]([C@H](C)CC)NC(=O)C1"
study_target = "S. aureus (ATCC 29213)"
class_name = "met"

[[record]]
molecule = "CC[C@@H](C)[C@@H](NC(=O)[C@@H](CCCCN)NC(=O)[C@@H](CCCCN)NC(=O)[C@@H](Cc1ccccc1)NC(=O)[C@@H](CC(C)C)NC(=O)[C@@H](CCCCN)NC(=O)[C@H](N)CCCCN)C(=O)N[C@H](CC(C)C)C(=O)N1CCCC[C@H](C(N)=O)NC(=O)[C@@H](Cc2ccc(O)cc2)NC(=O)[C@@H](CCCNC(=N)N)NC(=O)C1"
study_target = "S. aureus (ATCC 29213)"
class_name = "not met"

[[record]]
molecule = "CCCCCCCC(=O)N[C@H](CCCCN)C(=O)N[C@H](CCCCN)C(=O)N[C@H](CC(C)C)C(=O)N[C@H](Cc1ccccc1)C(=O)N[C@H](CCCCN)C(=O)N[C@H](CCCCN)C(=O)N[C@@H](C(=O)N[C@H](CC(C)C)C(=O)N[C@H](CCCNC(=N)N)C(=O)N[C@H](Cc1ccc(O)cc1)C(=O)N[C@H](CC(C)C)C(N)=O)[C@H](C)CC [compound 3] (Octanoyl-[dK][dK][dL][dF][dK][dK][dI][dL][dR][dY][dL]-NH2)"
study_target = "S. aureus (ATCC 29213)"
class_name = "not met"


Hello, I'm reviewing records and need to know if MIC SA of CCCC(=O)N[C@H](CCCCN)C(=O)N[C@H](CCCCN)C(=O)N[C@H](CC(C)C)C(=O)N[C@H](Cc1ccccc1)C(=O)N[C@H](CCCCN)C(=O)N[C@H](CCCCN)C(=O)N[C@@H](C(=O)N[C@H](CC(C)C)C(=O)N[C@H](CCCNC(=N)N)C(=O)N[C@H](Cc1ccc(O)cc1)C(=O)N[C@H](CC(C)C)C(N)=O)[C@H](C)CC [compound 1] (Butyryl-[dK][dK][dL][dF][dK][dK][dI][dL][dR][dY][dL]-NH2) is below 20 µM. Could you check?
not met

Consider the molecule `CCCCCCCCCCCC(=O)N[C@H](CCCCN)C(=O)N[C@H](CCCCN)C(=O)N[C@H](CC(C)C)C(=O)N[C@H](Cc1ccccc1)C(=O)N[C@H](CCCCN)C(=O)N[C@H](CCCCN)C(=O)N[C@@H](C(=O)N[C@H](CC(C)C)C(=O)N1CCCC[C@H](C(N)=O)NC(=O)[C@@H](Cc2ccc(O)cc2)NC(=O)[C@@H](CCCNC(=N)N)NC(=O)C1)[C@H](C)CC` . Is its MIC SA strictly less than 20 µM?
met

Check if MIC SA falls below 20 µM for CC[C@@H](C)[C@@H](NC(=O)[C@@H](CCCCN)NC(=O)[C@@H](CCCCN)NC(=O)[C@@H](Cc1ccccc1)NC(=O)[C@@H](CC(C)C)NC(=O)[C@@H](CCCCN)NC(=O)[C@H](N)CCCCN)C(=O)N[C@H](CC(C)C)C(=O)N[C@H](CCCNC(=N)N)C(=O)N[C@H](Cc1ccc(O)cc1)C(=O)N[C@H](CC(C)C)C(N)=O [BP214, reference compound] (H-[dK][dK][dL][dF][dK][dK][dI][dL][dR][dY][dL]-NH2; N-terminus assumed) .
met

MIC SA strictly < 20 µM for this molecule? `CCCCCCCCCCCCCC(=O)N[C@H](CCCCN)C(=O)N[C@H](CCCCN)C(=O)N[C@H](CC(C)C)C(=O)N[C@H](Cc1ccccc1)C(=O)N[C@H](CCCCN)C(=O)N[C@H](CCCCN)C(=O)N[C@@H](C(=O)N[C@H](CC(C)C)C(=O)N1CCCC[C@H](C(N)=O)NC(=O)[C@@H](Cc2ccc(O)cc2)NC(=O)[C@@H](CCCNC(=N)N)NC(=O)C1)[C@H](C)CC`
met
